- Tested on: Salmonella typhimurium
- METHOD_NOTES: Ames test averaged in revertants/plate with Salmonella Typhimurium TA98 at 0.13 mg/plate
- Format: functional, Salmonella enterica subsp. enterica serovar Typhimurium
MEASURED_PARAMETER: Revertants/plate
Give only the figure.

Please review the entries below; each comes with its answer.
SMILES_CODE	SYSTEM_NAME	Revertants/plate
CC(=O)Nc1ccc2c(c1)[nH]c1ccccc12	Salmonella typhimurium	725
CCCc1ccc2c(c1)C(=O)c1ccc(NC(C)=O)cc1S2(=O)=O	Salmonella typhimurium	0
CC(=O)Nc1ccc2c(c1)S(=O)(=O)c1ccc(C)cc1C2=O	Salmonella typhimurium	1
CC(=O)Nc1ccc2c(c1)S(=O)(=O)c1ccccc1-2	Salmonella typhimurium	0

## Input Request body: readout Revertants/plate, system Salmonella typhimurium, query "CCc1ccc2c(c1)C(=O)c1ccc(NC(C)=O)cc1S2(=O)=O" . Return the value.
## Output 0

====

Here, each record is paired with measured logP data.
- METHOD_NOTES: Partition coefficient (logP)
- Assay type: physicochemical
- RUN_PARAMETERS: octanol/water
Give only the figure.

Please review the entries below; each comes with its answer.
SMILES_CODE	logP
CCc1ccc2c(c1)C(=O)c1ccc(NC(C)=O)cc1S2(=O)=O	3.44
CC(=O)Nc1ccc2c(c1)S(=O)(=O)c1ccccc1C2=O	2.35
CC(=O)Nc1ccc2c(c1)S(=O)(=O)c1ccc(C)cc1C2=O	2.76
CCCc1ccc2c(c1)C(=O)c1ccc(NC(C)=O)cc1S2(=O)=O	3.51

## Input So what does the record say about logP for "CC(=O)Nc1ccc2c(c1)[nH]c1ccccc12" ?
## Output 3.02

Where do these numbers come from? They come from ChEMBL document CHEMBL1121482.
